# credit: the supplement of paper PMC10567573

protein stability index by entry:
B1: ZNF511 (parent)
chain: YEHHYHTLHGNVCSFCKRAFPSGH

# Variants of: B1
# Measurement Notes: protein stability index of a GFP-peptide fusion (GPS, HEK-293T) (PSI 1-6); higher = more stable;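 note: lentivirally expressed fusions sorted by FACS into six bins by GFP to DsRed ratio, PSI derived from sequencing read proportions per bin multiplied by bin number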
# Condition Set: c terminus: a fixed tail appended

Consider the reported protein stability index for these variants:
1) YEHHYHTLHGNVCSFCKRAFPSGQ ... 2.08
2) YEHHYHTLHGNVCSSCKRAFPSGH ... 2.39

Alright, here's another variant for you.
Dear colleague, I am looking for the recorded protein stability index of the following variant: YEHHFHTLHGNVCSFCKRAFPSGH
2.29
